System: BT-474
METHOD_SUMMARY: Antiproliferative activity against human BT-474 cells overexpressing HER2 assessed as cell growth inhibition incubated for 72 hrs by cell titer glo assay
Format: functional, cell-based
CONDITIONS: BT-474, 72 h
Starred links: 1 amine or outer side, 2 acyl side, 3 side chain; linkers in the order of their positions; H or OH if unused. Positions of bridges follow the written chain, without caps; N, C: chain ends. Non-standard residues stand in square brackets, D forms with d. Residues, ends and D or L forms follow the SMILES beside them. X1 = N=C(N)NCCC[C@H](N[*:2])C(=O)NC(=O)[C@H](CC(=O)O)NC(=O)[*:1]; βAla(3S-(1-naphthyl)) = O=C(C[C@H](N[*:1])c1cccc2ccccc12)[*:2]
EXPERIMENTAL_READOUT: pIC50
By convention, pIC50 is the negative base-10 log of a molar concentration.

Recorded results for 4 compounds are shown here.
N=C(N)NCCC[C@@H]1NC(=O)[C@H]2CCCN2C(=O)[C@@H]2CCCN2C(=O)[C@H](CCCNC(=N)N)NC(=O)C[C@H](c2cccc3ccccc23)NC(=O)N[C@H]2CSSC[C@H](NC(=O)C[C@H](c3cccc4ccccc34)NC1=O)C(=O)N[C@@H](Cc1ccccc1)C(=O)NC(=O)[C@H](Cc1ccccc1)NC2=O; 5.28
CC[C@H](C)[C@H]1C(=O)NC(=O)[C@H](CCCNC(=N)N)NC(=O)C[C@@H](c2cccc3ccccc23)NC(=O)N[C@H]2CSSC[C@H](NC(=O)C[C@@H](c3cccc4ccccc34)NC(=O)[C@H](CCCNC(=N)N)NC(=O)[C@@H]3CCCN3C(=O)[C@@H]3CCCN13)C(=O)N[C@@H](Cc1ccccc1)C(=O)N1CCC[C@H]1C(=O)N[C@@H](CC(=O)O)C(=O)NC(=O)[C@H](CC(=O)O)NC(=O)[C@H](Cc1ccccc1)NC2=O; 6.55
CC[C@H](C)[C@H]1C(=O)NC(=O)[C@H](CCCNC(=N)N)NC(=O)C[C@H](c2cccc3ccccc23)NC(=O)N[C@H]2CSSC[C@H](NC(=O)C[C@H](c3cccc4ccccc34)NC(=O)[C@H](CCCNC(=N)N)NC(=O)[C@@H]3CCCN3C(=O)[C@@H]3CCCN13)C(=O)N[C@@H](Cc1ccccc1)C(=O)N1CCC[C@H]1C(=O)N[C@@H](CC(=O)O)C(=O)NC(=O)[C@H](CC(=O)O)NC(=O)[C@H](Cc1ccccc1)NC2=O; 5.53
CC[C@H](C)[C@@H]1NC(=O)[C@H](CO)NC(=O)[C@H](CC(=O)O)NC(=O)[C@H](Cc2ccccc2)NC(=O)[C@@H]2CSSC[C@H](NC(=O)[C@H](Cc3ccccc3)NC(=O)[C@H](CC(=O)O)NC1=O)C(=O)N[C@H](c1cccc3ccccc13)CC(=O)N[C@@H](CCCNC(=N)N)C(=O)NC(=O)[C@H](CC(=O)O)NC(=O)N[C@@H](CCCNC(=N)N)C(=O)N[C@H](c1cccc3ccccc13)CC(=O)N2 (R[βAla(3S-(1-naphthyl))]CFDSIDFC[βAla(3S-(1-naphthyl))]; disulfide 3-10; linker N-C via X1); 5.38

Now examine the next entry.
// query pIC50 value for entry `N=C(N)NCCC[C@@H]1NC(=O)[C@H]2CCCN2C(=O)[C@@H]2CCCN2C(=O)[C@H](CCCNC(=N)N)NC(=O)C[C@H](c2cccc3ccccc23)NC(=O)N[C@H]2CSSC[C@H](NC(=O)C[C@H](c3cccc4ccccc34)NC1=O)C(=O)N[C@@H](Cc1ccccc1)C(=O)N[C@@H](CC(=O)O)C(=O)NC(=O)[C@H](CC(=O)O)NC(=O)[C@H](Cc1ccccc1)NC2=O`
5.44
